This collection of values is drawn from ChEMBL document CHEMBL5325424.

# Tested on: Trypanosoma cruzi
# Method: Antitrypanosomal activity against Trypanosoma cruzi Tulahuen amastigotes infected in mouse L929 cells assessed as parasite growth inhibition measured after 7 days by CPRG/Nonidet based assay
# Assay type: functional, organism-based
# Measurement parameters: L929, 168 h
Property label: pIC50
Please report pIC50 as the negative decimal logarithm of the molar concentration, giving only the number.

[
  {
    "Molecule": "C/C(=N\\N=C1/NC(=O)CS1)c1ccncc1",
    "pIC50": 5.20
  },
  {
    "Molecule": "C/C(=N\\N=C1/SCC(=O)N1c1ccccc1)c1ccccn1",
    "pIC50": 5.06
  },
  {
    "Molecule": "CC(C)C1S/C(=N/N=C/c2ccccn2)N(c2ccccc2)C1=O (stereo not drawn)",
    "pIC50": 6.22
  }
]

Challenge: Recorded pIC50 of CC(C)C1S/C(=N/N=C/c2ccccn2)NC1=O (stereo not drawn) , please.
Response given: 6.08

Challenge: # iterate: CC1(C)S/C(=N/N=C/c2ccccn2)NC1=O
Response given: 5.79

Challenge: # iterate: C/C(=N\NC(=S)Nc1ccccc1)c1ccccn1
Response given: 7.15

Challenge: # iterate: C/C(=N\N=C1/SCC(=O)N1C)c1ccccn1
Response given: 4.09

Challenge: # iterate: C/C(=N\N=C1\SC(C(C)C)C(=O)N1c1ccccc1)c1ccncc1 (stereo not drawn)
Response given: 6.05

Challenge: # iterate: CC(C)C1S/C(=N/N=C/c2ccccn2)N(C)C1=O (stereo not drawn)
Response given: 6.12

Challenge: # iterate: O=C1CS/C(=N/N=C/c2ccccn2)N1
Response given: 5.09

Challenge: # iterate: CNC(=S)N/N=C(\C)c1ccccn1
Response given: 6.12

Challenge: # iterate: C/C(=N\NC(=S)Nc1ccccc1)c1ccncc1
Response given: 5.54

Challenge: # iterate: C/C(=N\N=C1/SCC(=O)N1C)c1ccncc1
Response given: 5.12

Challenge: # iterate: C/C(=N\NC(N)=S)c1ccccn1
Response given: 5.86
